- Tested on: SDMA in HAP1 MTAP-intact cell line (PRMT5 inhibition)
- protocol_notes: SDMA in-cell western assay, HAP1 MTAP-intact cell line
- settings: Homo sapiens, HAP1, read-out: Hap1 MTAP intact IC50
measured_endpoint: IC50

>>> obs_value("Nc1ncc(NC(=O)C(=O)N(Cc2ccccc2)Cc2ncc(F)cc2Cl)c2[nH]ncc12 [Compound 65]")
"5 to 50 nM"
>>> obs_value("CC(c1ccc(C(F)(F)F)cc1)N(C(=O)C(=O)Nc1cnc(N)c2cn[nH]c12)C1CCC1 (stereo not shown) [Compound 192]")
"5 to 50 nM"
>>> obs_value("Cc1cccnc1CN(Cc1ccccc1)C(=O)C(=O)Nc1cnc(N)c2cn[nH]c12 [Compound 114]")
"5 to 50 nM"
>>> obs_value("O=C(Nc1cncc2cn[nH]c12)C(=O)N(Cc1ccc(C(F)(F)F)cn1)[C@@H]1CCc2ccccc21 [Compound 26]")
"> 50 nM"
>>> obs_value("C[C@H](c1ccc(C(F)(F)F)cc1C(F)(F)F)N(C)C(=O)C(=O)Nc1cnc(N)c2cn[nH]c12 [Compound 193]")
"> 50 nM"
>>> obs_value("COc1ncc(NC(=O)C(=O)N(Cc2ccc(C(F)(F)F)cn2)Cc2ccccc2C)cc1C(N)=O [Compound 143]")
"> 50 nM"

Q: Name the recorded IC50 of Nc1ncc(NC(=O)C(=O)N(Cc2ccc(C(F)(F)F)cn2)[C@@H]2CCC[C@H]2OC(F)F)c2[nH]ncc12 [Compound 43] , assay system SDMA in HAP1 MTAP-intact cell line (PRMT5 inhibition).
Result: 5 to 50 nM

Q: Enter recorded IC50 with SDMA in HAP1 MTAP-intact cell line (PRMT5 inhibition) for CCN(Cc1ccc(S(F)(F)(F)(F)F)cc1C)C(=O)C(=O)Nc1cnc(N)c2cn[nH]c12 [Compound 194] here.
Result: 5 to 50 nM

Q: Report IC50 from SDMA in HAP1 MTAP-intact cell line (PRMT5 inhibition) testing of CC(C)CN(Cc1ccccc1F)C(=O)C(=O)Nc1cnc(N)c2cn[nH]c12 [Compound 94]
Result: 5 to 50 nM

Q: Provide measured IC50 on SDMA in HAP1 MTAP-intact cell line (PRMT5 inhibition) for CC1CCC(N(Cc2ccc(C(F)(F)F)cn2)C(=O)C(=O)Nc2cncc3cn[nH]c23)c2ccccc21 (stereo not shown) [Compound 17] please.
Result: > 50 nM

Q: Report the value of IC50 obtained on SDMA in HAP1 MTAP-intact cell line (PRMT5 inhibition) for COC[C@@H](C1CC1)N(Cc1ccc(C(F)(F)F)cn1)C(=O)C(=O)Nc1ccn2ccnc2c1 [Compound 31] .
Result: > 50 nM

Q: For SDMA in HAP1 MTAP-intact cell line (PRMT5 inhibition), give the measured IC50 of the entry CC[C@H](C)CN(Cc1ccccn1)C(=O)C(=O)Nc1cnc(N)c2cn[nH]c12 [Compound 128]
Result: > 50 nM

Q: Look up and report IC50, with SDMA in HAP1 MTAP-intact cell line (PRMT5 inhibition) as system, for CCN(Cc1ccccc1C)C(=O)C(=O)Nc1cnc(N)c2cn[nH]c12 [Compound 151]
Result: > 50 nM

Q: Report IC50 under test system SDMA in HAP1 MTAP-intact cell line (PRMT5 inhibition) for Nc1ncc(NC(=O)C(=O)N(Cc2ccccc2)Cc2ccccc2Cl)c2[nH]ncc12 [Compound 87] .
Result: 5 to 50 nM

Q: Please tell me the measured IC50 for CC1CCC(N(Cc2ccc(C(F)(F)F)cn2)C(=O)C(=O)Nc2ccn3ccnc3c2)c2ccccc21 (stereo not shown) [Compound 12] ; system: SDMA in HAP1 MTAP-intact cell line (PRMT5 inhibition).
Result: > 50 nM

Q: Lab note: record IC50 of C[C@@H](c1ccc(C(F)(F)C(F)(F)F)cc1)N(C)C(=O)C(=O)Nc1cnc(N)c2cn[nH]c12 [Compound 131] tested on SDMA in HAP1 MTAP-intact cell line (PRMT5 inhibition).
Result: > 50 nM

Just for reference, patent US20250136594A1 is where these values come from.
